MEASURED ON: human Keap1 Kelch domain (Homo sapiens)
Construct: human Keap1 Kelch domain (residue 321-609, UniProt Q14145); made in house; host or cells: Escherichia coli BL21 (DE3) pLysS, pRSET A vector
Sequence (Q14145 321-609): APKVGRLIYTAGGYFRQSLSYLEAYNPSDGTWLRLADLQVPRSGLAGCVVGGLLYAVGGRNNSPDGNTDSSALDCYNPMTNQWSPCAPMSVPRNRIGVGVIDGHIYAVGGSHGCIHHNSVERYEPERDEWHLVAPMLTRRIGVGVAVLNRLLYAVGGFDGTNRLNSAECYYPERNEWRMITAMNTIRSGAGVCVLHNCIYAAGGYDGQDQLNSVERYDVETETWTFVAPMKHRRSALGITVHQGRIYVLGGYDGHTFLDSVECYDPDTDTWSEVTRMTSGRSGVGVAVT
EXPERIMENTAL PROTOCOL: Fluorescence polarization (FP) competition assay, Cy5-Nrf2 peptide probe
Assay type: binding
SETTINGS: heterologous competition FP; Keap1 Kelch 14 nM, Cy5-Nrf2 probe 3 nM, 4% DMSO; mean ± SEM
Rule: measured Ki below 0.02 µM gets Yes; anything equal to or greater than 0.02 µM gets No.

> print(dat)
                                   molecule  classification
1  O=C(O)CC(c1ccc2c(c1)CCO2)c1ccc2ccc(OCC(=O)NC3C=CCCC3)cc2c1 (centres unmarked)              No

Ask: API: query returns whether the molecule falls strictly under 0.02 µM in Ki. Query: CC1(C)CCC(NC(=O)COc2ccc3ccc(C(CC(=O)O)c4ccc5c(c4)OCO5)cc3c2)CC1 (centres unmarked)
Result: No

Ask: Ki strictly < 0.02 µM for this molecule? Cc1cc2occc2cc1C(CC(=O)O)c1ccc2ccc(OCC(=O)NC3CCCCC3)cc2c1 (centres unmarked)
Result: No

Ask: Problem: For the molecule O=C(O)CC(c1ccc2ccc(OCC(=O)N[C@H]3C[C@@H]4CC[C@H]3C4)cc2c1)c1cc2c(cc1Cl)OCO2 (some centres unmarked) , is Ki under 0.02 µM?
Result: Yes

Ask: Confirm or reject: Ki of Cc1nc2[nH]ccc2cc1C(CC(=O)O)c1ccc2ccc(OCC(=O)NC3CCCCC3)cc2c1 (centres unmarked) lies strictly below 0.02 µM
Result: No

Ask: Hi there! Is Ki for Cc1c(Cl)cccc1C(CC(=O)O)c1ccc2ccc(OCC(=O)NC3C=CCCC3)cc2c1 (centres unmarked) below 0.02 µM, do you know?
Result: No

Ask: Given O=C(O)CC(c1ccc2c(c1)OCO2)c1ccc2ccc(OCC(=O)N[C@@H]3C[C@@H]4CC[C@H]3C4)cc2c1 (some centres unmarked) , is recorded Ki strictly lower than 0.02 µM?
Result: Yes

* * *

MEASURED ON: human Keap1 Kelch domain (Homo sapiens)
Construct: human Keap1 Kelch domain (residue 321-609, UniProt Q14145); made in house; host or cells: Escherichia coli BL21 (DE3) pLysS, pRSET A vector
EXPERIMENTAL PROTOCOL: Fluorescence polarization (FP) competition assay, Cy5-Nrf2 peptide probe
Assay type: binding
SETTINGS: heterologous competition FP; Keap1 Kelch 14 nM, Cy5-Nrf2 probe 3 nM, 4% DMSO; mean ± SEM
Threshold-based label: Ki under 0.2 µM gives satisfied, Ki not under 0.2 µM gives not satisfied.

Answered examples (3):
> print(dat)
                                   compound  classification
1  O=C(O)CC(c1ccc2ccc(OCC(=O)NC3CCCCC3)cc2c1)c1ccc2occc2c1 (centres unmarked) [3o]       satisfied
2  CCn1nnc2c(C)c(C(CC(=O)O)c3ccc4ccc(OCC(=O)NC5CCCCCC5)cc4c3)ccc21 (centres unmarked) [2p]       satisfied
3  COc1ccc(C(CC(=O)O)c2ccc3ccc(OCC(=O)NC4CCCCC4)cc3c2)c(C)c1 (centres unmarked) [3b]       satisfied

Please turn your attention to the following entry.
Ask: Please indicate whether the reported Ki of COc1cccc(C(CC(=O)O)c2ccc3ccc(OCC(=O)NC4CCCCCC4)cc3c2)c1 (centres unmarked) [2h] is strictly below 0.2 µM.
Result: not satisfied
